Reported max response by item:
Assay: qHTS Assay for Lipid Storage Modulators (AID 1519)
Settings: Drosophila S3 cells, BODIPY lipid droplet/cell ratio, laser cytometry; measured here: cell count channel max response; cells loaded with oleic acid
Inconclusive results are not listed.
Write the value in % as a bare number.

// known answers, use as guide
- compound: "O=C1CCc2cc(OCCCCc3nnnn3C3CCCCC3)ccc2N1"
  property: "max response"
  units-symbol: "%"
  value-observed: -20.7
- compound: "c1ccc([C@H]2CN3CCSC3=N2)cc1"
  property: "max response"
  units-symbol: "%"
  value-observed: 21.4
- compound: "CCOC(=O)C1=C[C@]2(CC)CCCN3CCc4c(n1c1ccccc41)[C@@H]32"
  property: "max response"
  units-symbol: "%"
  value-observed: -25.8
- compound: "CCOC(=O)C1=C[C@@]2(CC)CCCN3CCc4c(n1c1ccccc41)[C@H]32"
  property: "max response"
  units-symbol: "%"
  value-observed: -14.2
- compound: "C1COC(NC(C2CC2)C2CC2)=N1"
  property: "max response"
  units-symbol: "%"
  value-observed: 3.69

compound `N#Cc1ccc(C(c2ccc(C#N)cc2)n2cncn2)cc1` , max response observed: -19.8

The compound identified as `CC(C)(Sc1ccc(CCN(CCCCC2CCCCC2)C(=O)NC2CCCCC2)cc1)C(=O)O` registered its max response at 16.5

response.value for `NC[C@H](O)c1ccc(O)c(O)c1` (field: max response) = -22.5

Per the record, CCn1cc(C(=O)O)c(=O)c2cc(F)c(N3CCNC(C)C3)c(F)c21 (configuration not stated) has max response of 16.3

Documented max response of `CNC[C@H](O)c1cccc(O)c1` : 20.5

Cc1ccccc1C(OCCN(C)C)c1ccccc1 (configuration not stated) yielded max response of -31.3

Value of max response reported for the compound `NC(=O)c1cnccn1` is 10.7

====

Test: Quantitative High-Throughput drug screen in 47 multiple myeloma cell lines against the NCATS MIPE library collection: SKMM1_PLB cell viability assay (AID 1919863); further: nearly all actives have a fitted effect of over 35% in size
Details: SKMM1 myeloma viability, CellTiter-Glo ATP, 48 h; stronger effect = lower value
Inconclusive results are not listed.
Documented viability across a set of molecules
Number only, in %; omit the unit.

- molecule: "NC(=O)c1ccc(I)c([N+](=O)[O-])c1"
  property: "viability"
  value-observed: 102
- molecule: "NC(=O)c1ccc(-c2nc(-c3ccc4c(c3)OCCO4)c(-c3ccccn3)[nH]2)cc1"
  property: "viability"
  value-observed: 112
- molecule: "Nc1nc2c(ncn2COCCO)c(=O)[nH]1"
  property: "viability"
  value-observed: 125
- molecule: "CCN(CC)CCCC(C)Nc1ccnc2cc(Cl)ccc12 (stereo unspecified)"
  property: "viability"
  value-observed: 95.1
- molecule: "Cc1[nH]c(=O)c(C#N)cc1-c1ccncc1"
  property: "viability"
  value-observed: 106

Would you kindly look at the next entry?
According to the records, this molecule `N[C@@H]1CONC1=O` displays viability of 132

====

# remaining parasite growth % (stronger effect = lower value) values compiled below
Assay: qHTS profiling for inhibitors of Plasmodium falciparum (3D7) proliferation (AID 743322);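 further: infected erythrocytes exposed to compound for 72 h before lysis; 100% = DMSO vehicle wells and 0% = 0.29 µM artemisinin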
Settings: P. falciparum 3D7 proliferation; at 28.7 µM (top of the series) unless noted
The reply should be a number in %, with the unit left off.

- compound: "CN(C(=O)c1ccc(F)cc1C(F)(F)F)C1CCN(c2nnc(-c3ccnn3C)c3ccccc23)CC1"
  units-symbol: "%"
  value-observed: 59.4
- compound: "CCC(=O)N[C@H]1CC[C@H](C(=O)N(C)c2ccc(-c3nc4ccccc4o3)cc2)C1"
  units-symbol: "%"
  value-observed: 58.5
- compound: "NC(=O)c1ccc(-c2nc(-c3ccc4c(c3)OCCO4)c(-c3ccccn3)[nH]2)cc1"
  units-symbol: "%"
  value-observed: 15.5
- compound: "Cc1cccc(-c2[nH]c(C(C)(C)C)nc2-c2ccc3nccnc3c2)n1"
  units-symbol: "%"
  value-observed: 54.8
- compound: "CCCc1nc2c(C)cc(-c3nc4ccccc4n3C)cc2n1Cc1ccc(-c2ccccc2C(=O)O)cc1"
  units-symbol: "%"
  value-observed: 103

Read the next record carefully.
Per the records, this compound ( `CCCCCCCc1ccc(CCc2cccc(O)c2C(=O)O)cc1` ) has remaining parasite growth % (stronger effect = lower value) equal to 93

====

Test system: PC49
Test: qHTS profiling for inhibitors of Plasmodium falciparum proliferation (AID 504749); further: nearly all actives have a fitted effect of over 60% in size
Conditions: P. falciparum in erythrocytes, SYBR Green DNA, 72 h; series mostly up to 28.7 µM
Results filed as inconclusive are left out. Active and inactive are the calls of the source. The call rests on the fitted dose curve; in most records, active means well fitted inhibition curve with a large enough effect; inconclusive means small, poorly fitted or top-dose-only effect; inactive means flat fitted curve, though single readings scatter.
Select the matching outcome among yes (active), no (inactive)

Example results:
- compound: "CCCc1nc2c(C)cc(-c3nc4ccccc4n3C)cc2n1Cc1ccc(-c2ccccc2C(=O)O)cc1"
  label-class: "yes"
- compound: "N#Cc1ccc(C(c2ccc(C#N)cc2)n2cncn2)cc1"
  label-class: "no"
- compound: "CC(=O)Oc1ccccc1C(=O)O"
  label-class: "no"

Lookup: Please state the recorded outcome for this compound: `N=c1nc(N2CCCCC2)cc(N)n1O`
Found: no

Lookup: Give the logged outcome of this assay for the following compound: `CCOC(=O)N1CCC(=C2c3ccc(Cl)cc3CCc3cccnc32)CC1`
Found: yes

Lookup: Query: recorded result category for `CCCc1nn(C)c2c(=O)[nH]c(-c3cc(S(=O)(=O)N4CCN(C)CC4)ccc3OCC)nc12` in this test
Found: no

====

Test: qHTS of pediatric cancer cell lines to identify multiple opportunities for drug repurposing: Primary screen for NB-EBc1 cells (AID 1347095)
Conditions: NB-EBc1 neuroblastoma viability, CellTiter-Glo luminescence, 48 h; series mostly up to 46 µM
Inconclusive results are not listed. Active and inactive are the calls of the source. The call rests on the fitted dose curve; in most records, active means well fitted cell-killing curve with a large enough effect; inconclusive means small, poorly fitted or top-dose-only effect; inactive means no such curve, though single readings can be large or run the other way.
Parameter call: string, one of active, inactive

- compound: "O=C(Nc1nc2ccccc2n1CCN1CCOCC1)c1cccc([N+](=O)[O-])c1"
  label-class: "active"
- compound: "COc1cc2nccc(Oc3ccc(NC(=O)NC4CC4)c(Cl)c3)c2cc1C(N)=O"
  label-class: "active"
- compound: "Oc1ccc(C2CNCCc3c2cc(O)c(O)c3Cl)cc1 (stereo not given)"
  label-class: "inactive"

Now, please, on to the next compound.
Lookup: Any idea what this test logged for `N=c1nc(N2CCCCC2)cc(N)n1O` ?
Found: inactive

====

Test: qHTS for differential inhibitors of proliferation of Plasmodium falciparum line 3D7 (AID 1876)
Details: P. falciparum 3D7 proliferation inhibition; series mostly up to 28.7 µM
Results filed as inconclusive are left out. Active and inactive are the calls of the source. Calls follow the shape of the dose curve; as a rule, active = well fitted curve in the direction sought with a large enough effect; inconclusive = small, poorly fitted or top-dose-only effect, or another doubt; inactive = no such curve, though single readings can be large or run the other way.
Give one outcome, nothing more. List: active, inactive

Some solved entries appear below for comparison.
- molecule: "CC(C)(Sc1ccc(CCN(CCCCC2CCCCC2)C(=O)NC2CCCCC2)cc1)C(=O)O"
  label-class: "inactive"
- molecule: "CC(=O)Oc1ccccc1C(=O)O"
  label-class: "inactive"
- molecule: "O=NN(CCCl)C(=O)NCCCl"
  label-class: "inactive"
- molecule: "Oc1ccc(C2CNCCc3c2cc(O)c(O)c3Cl)cc1 (stereo not given)"
  label-class: "active"
- molecule: "CCN(CC)CCCC(C)Nc1ccnc2cc(Cl)ccc12 (stereo not given)"
  label-class: "active"
- molecule: "CCOC(=O)N1CCC(=C2c3ccc(Cl)cc3CCc3cccnc32)CC1"
  label-class: "active"
- molecule: "NCCCC(N)(C(=O)O)C(F)F (stereo not given)"
  label-class: "inactive"
- molecule: "CN1CCN(CCCN2c3ccccc3Sc3ccc(C(F)(F)F)cc32)CC1"
  label-class: "active"

Lookup: Which result was noted for this molecule in the test: OC(CN1CCC(Cc2ccc(F)cc2)CC1)c1ccc(Cl)cc1 (stereo not given)
Found: active

Lookup: Please let me know the test result on file for `Cc1[nH]c(=O)c(C#N)cc1-c1ccc2nccn2c1` .
Found: inactive

====

Experiment: qHTS for differential inhibitors of proliferation of Plasmodium falciparum line W2 (AID 1883);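 further: parasites grown with compound for 72 h before lysis and staining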
Conditions: Plasmodium falciparum W2 proliferation inhibition; series mostly up to 28.7 µM
Inconclusive results are not listed. Calls of active or inactive are those of the source. Calls come from the whole dose curve; as a rule, active = well fitted curve in the direction sought with a large enough effect; inconclusive = small, poorly fitted or top-dose-only effect, or another doubt; inactive = no such curve, though single readings can be large or run the other way.
The categories you may choose from are Yes = active, No = inactive

Solved cases (3 shown):
- molecule: "O=NN(CCCl)C(=O)NCCCl"
  label-class: "No"
- molecule: "CCN(CC)CCCC(C)Nc1ccnc2cc(Cl)ccc12 (stereo unspecified)"
  label-class: "Yes"
- molecule: "CNC[C@H](O)c1cccc(O)c1"
  label-class: "No"

Next item in the queue.
Lookup: Hey, what did the test say about `C1COC(NC(C2CC2)C2CC2)=N1` ?
Found: Yes

====

Assay: qHTS profiling of the MIPE4 collection as inhibitors of Plasmodium falciparum (DD2) proliferation (Rep 2) (AID 743346)
Conditions: P. falciparum Dd2 in erythrocytes, SYBR Green DNA, 72 h; at 28.5 µM (top of the series) unless noted
Entries are grouped by parasite growth, % of control (lower = inhibition) into these classes: lo = under 10%, med = from 10% up to 60%, hi = 60% and over

- molecule: "C1COC(NC(C2CC2)C2CC2)=N1"
  label-class: "hi"
- molecule: "CCC(C)n1ncn(-c2ccc(N3CCN(c4ccc(OC[C@H]5CO[C@](Cn6cncn6)(c6ccc(Cl)cc6Cl)O5)cc4)CC3)cc2)c1=O (some centres not stated)"
  label-class: "med"
- molecule: "Cc1ccnc(NS(=O)(=O)c2ccc(NC(=O)Nc3ccc(S(=O)(=O)Nc4nccc(C)n4)cc3)cc2)n1"
  label-class: "med"
- molecule: "CN1CCN(CCCN2c3ccccc3Sc3ccc(C(F)(F)F)cc32)CC1"
  label-class: "hi"
- molecule: "NC(=O)c1ccc(I)c([N+](=O)[O-])c1"
  label-class: "hi"

Lookup: Note: place this molecule into its band. Item: `CC[C@@H](C)[C@H](NC(=O)[C@H](CC1CCCCC1)NC(=O)c1ccno1)C(=O)N1CCC2(CCc3ccccc32)CC1`
Found: med

Lookup: For `N=c1nc(N2CCCCC2)cc(N)n1O` , which parasite growth, % of control (lower = inhibition) bin applies?
Found: lo

Lookup: Classify this molecule: `Cc1cn[nH]c1`
Found: lo

Lookup: Bin this entry: `O=S(=O)(N=Cc1c(O)ccc2ccccc12)c1cccs1`
Found: hi
